Target: T1, human ApoC3 (huApoC3), native protein purified from human serum (human, UniProt P02656 21-99)
T1 construct: Athens Research and Technology; randomly biotinylated in some assays; also called Apolipoprotein C3
T1 sequence (P02656 21-99): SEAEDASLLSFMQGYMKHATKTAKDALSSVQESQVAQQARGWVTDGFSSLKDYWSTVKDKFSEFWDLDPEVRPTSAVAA
Experiment: SPR Biacore, huApoC3 on chip, scFv-Fc as analyte
In this section we review reported pKd values for a set of binders.
Keep in mind that pKd stands for -log10 of concentration in molar terms.

Some binders with known pKd results, for comparison:
{"columns": ["binder", "measure", "measured-result"],
 "data": [
  ["8H4 scFv-Fc (Fc fusion, scFv-Fc format) VH: ELQLVESGGGLVQPGRSLRLSCAASGFTFSSYSMRWVRQTPGKGLEWVTSINSDGGSTKYSDSVKGRFTISRDNAKNTLYLQMNNVKPEDTAIYYCAIQGYTDWGQGTQVTVSS VL: DVVLTQTPGSLSVVPGESASISCKVSQSLVHSDGKTYLYWLLQKPGQSPQRLIYQVSNRDSGVPDRFTGSGSGTDFTLKISGVKAEDAGVYYCAQGTYNPYTFGSGTRLEIK", "pKd", 9.40],
  ["5A7 scFv-Fc (Fc fusion, scFv-Fc format) VH: EVQVQESGPGLVKPSQTLSLTCTVSGASITNRRYAWTWIRQPPGKGLEWMGVIVYDGNTHVSPSLRSRTSISRDTSKNQFSLQLSSLTPEDTAVYYCARVLLLRDPLSLDYWGQGTQVTVSS VL: SSALTQPPSMSGTLGKTLTISCAGTSSDIGAYNFVSWYQQLPGTAPKLLIYDIDKRASGIPDRFSGSKSGNTASLSISGLQSEDEADYYCAAYGSRDNVVFGGGTHLTVL", "pKd", 9.32],
  ["8F4 scFv-Fc (Fc fusion, scFv-Fc format) VH: QLQLVESGGGLVQPGGSLRLSCAASGFAFSSYSMYWVRQAPGKGLERVAAIKTDGGSTNYADSVKGRFTVSRDNAKNTLYLQMNSLKSEDTAVYYCVIQGYGTWGQGTQVTVSS VL: DLVLTQIPGSLSVVPGESASISCKASQSLVHSDGKTYLYWLLQKPGQSPQRLIYQVSNRGSGVPDRFTGSGSGTDFTLKISGVEAEDAGVYYCAQATYYGHSFGSGTRLEIK", "pKd", 9.24]
]}

# input for lookup
I have this binder here, 5E5 scFv-Fc (Fc fusion, scFv-Fc format) VH: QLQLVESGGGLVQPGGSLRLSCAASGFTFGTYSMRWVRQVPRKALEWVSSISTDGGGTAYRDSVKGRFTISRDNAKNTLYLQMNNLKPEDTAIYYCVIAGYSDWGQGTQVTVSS VL: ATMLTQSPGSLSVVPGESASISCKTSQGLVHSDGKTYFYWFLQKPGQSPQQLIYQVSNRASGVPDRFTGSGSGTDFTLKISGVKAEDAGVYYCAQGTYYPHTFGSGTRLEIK , and I need its recorded pKd.
8.77
